# assaySummary: A CellTox Green Cytotoxicity Assay to monitor cytotoxicity in HEK293 cells - 24 hour (AID 1224875); also: nearly all actives have a fitted effect of over 45% in size
# details: CellTox Green fluorescence; series mostly up to 76.8 µM
Records with an inconclusive call do not appear. Activity calls are given as the source filed them. Calls follow the shape of the dose curve; as a rule, active = well fitted activation curve with a large enough effect in the repeat runs; inconclusive = weak or mixed curves; inactive = flat fitted curve, though single readings scatter.
Mark one answer only. Choices: true = active, false = inactive

Look over these answered cases.
{"smilesEntry": "O=C(NCc1ncc(C(F)(F)F)cc1Cl)c1c(Cl)cccc1Cl", "discreteLabel": "false"}
{"smilesEntry": "C/C=C/C(=O)OCC(C)C", "discreteLabel": "false"}
{"smilesEntry": "O=c1[nH]cccc1O", "discreteLabel": "false"}
{"smilesEntry": "CCN(CC)c1ccc(C=O)c(O)c1", "discreteLabel": "false"}
{"smilesEntry": "CCc1c(C)cc(N)c(CC)c1N", "discreteLabel": "false"}

**Query** Outcome logged for `CC(O)(c1ccc(Cl)cc1)c1ccc(Cl)cc1` in this assay:
**Result** true

**Query** Outcome logged for `CN1CCN(c2ccccc2/C=C2\SCCN(c3ccc(Cl)c(Cl)c3)C2=O)CC1` in this assay:
**Result** true

**Query** Outcome logged for `O=C1c2ccccc2C(=O)c2c(Cl)cccc21` in this assay:
**Result** false

---

# assaySummary: qHTS assay to identify small molecule agonists of the estrogen related receptor (ERR) signaling pathway (AID 1224820)
# details: ERR reporter cell line, luciferase agonist mode; series mostly up to 46.1 µM
Results filed as inconclusive are left out. Activity calls are given as the source filed them. The call rests on the fitted dose curve; in most records, active means well fitted activation curve with a large enough effect in the repeat runs; inconclusive means weak or mixed curves; inactive means no such curve, though single readings can be large or run the other way.
Mark one answer only. Choices: label 1 (active), label 0 (inactive)

**Query** Outcome logged for `Nc1nc(N)c(N=O)c(OCC2CCCCC2)n1` in this assay:
**Result** label 0

**Query** Outcome logged for `Cn1c(=O)c(-c2c(Cl)cccc2Cl)cc2cnc(Nc3ccc(N4CCOCC4)cc3)nc21` in this assay:
**Result** label 0

**Query** Outcome logged for `CCCCCCCC/C=C\CCCCCCCC(=O)NCCO` in this assay:
**Result** label 0

**Query** Outcome logged for C[N+](C)(C)CCOP(=O)(O)OP(=O)([O-])OC[C@H]1O[C@@H](n2ccc(N)nc2=O)[C@H](O)C1O (some centres undefined) in this assay:
**Result** label 0

---

# assaySummary: A CellTox Green Cytotoxicity Assay to monitor cytotoxicity in HEK293 cells - 8 hour (AID 1224884); also: nearly all actives have a fitted effect of over 35% in size
# details: CellTox Green fluorescence; series mostly up to 76.8 µM
Inconclusive results are not listed. Activity calls are given as the source filed them. Calls follow the shape of the dose curve; as a rule, active = well fitted activation curve with a large enough effect in the repeat runs; inconclusive = weak or mixed curves; inactive = flat fitted curve, though single readings scatter.
Mark one answer only. Choices: label 1 (active), label 0 (inactive)

{"molecule": "C=C1CC[C@H]2O[C@]2(C)CC[C@@H]2[C@@H]1CC2(C)C", "discreteLabel": "label 0"}
{"molecule": "O=C(CCCCCCCCc1cccnc1)N1CCC(C=C(c2ccccc2)c2ccccc2)CC1", "discreteLabel": "label 0"}
{"molecule": "COCCC(=O)OC", "discreteLabel": "label 0"}

Now look at this one.
**Query** Outcome logged for `C=C(C)CCO` in this assay:
**Result** label 0

---

# assaySummary: qHTS assay to identify small molecule agonists of the estrogen receptor beta (ER-beta) signaling pathway - cell viability counter screen (AID 1259380); also: nearly all actives have a fitted effect of over 30% in size
# details: ER-beta-bla HEK293T viability, CellTiter-Glo luminescence, 16 h; series mostly up to 92.4 µM
Records with an inconclusive call do not appear. Activity calls are given as the source filed them. Calls come from the whole dose curve; as a rule, active = well fitted cell-killing curve with a large enough effect in the repeat runs; inconclusive = weak or mixed curves, or effect the other way; inactive = flat fitted curve, though single readings scatter.
metric: outcome

Consider the following illustrative entries.
{"compound": "Nc1c(Br)cc([N+](=O)[O-])cc1Br", "metric": "outcome", "valueMeasured": "inactive"}
{"compound": "COc1cc(OC)nc(NC(=O)NS(=O)(=O)Nc2ccccc2C(=O)N(C)C)n1", "metric": "outcome", "valueMeasured": "inactive"}
{"compound": "CCOC(=O)OC(=O)OCC", "metric": "outcome", "valueMeasured": "inactive"}
{"compound": "CC(C=O)c1ccccc1 (configuration not stated)", "metric": "outcome", "valueMeasured": "inactive"}
{"compound": "NCc1ccco1", "metric": "outcome", "valueMeasured": "inactive"}

**Query** I would be grateful if you could share the reported outcome for `CC1(C)[C@H](C(=O)OCc2cccc(Oc3ccccc3)c2)[C@@H]1C=C(Cl)Cl` .
**Result** inactive

**Query** I would be grateful if you could share the reported outcome for `CCOC=C(C(=O)OCC)C(=O)OCC` .
**Result** inactive
